target: B. subtilis pol IIIC (Bacillus subtilis, UniProt P13267); construct: made in house; experiment: DNA polymerase assay, B. subtilis pol IIIC; format: biochemical; conditions: B. subtilis Pol IIIC IC50, −dGTP, in the absence of dGTP
Sequence (P13267 whole entry): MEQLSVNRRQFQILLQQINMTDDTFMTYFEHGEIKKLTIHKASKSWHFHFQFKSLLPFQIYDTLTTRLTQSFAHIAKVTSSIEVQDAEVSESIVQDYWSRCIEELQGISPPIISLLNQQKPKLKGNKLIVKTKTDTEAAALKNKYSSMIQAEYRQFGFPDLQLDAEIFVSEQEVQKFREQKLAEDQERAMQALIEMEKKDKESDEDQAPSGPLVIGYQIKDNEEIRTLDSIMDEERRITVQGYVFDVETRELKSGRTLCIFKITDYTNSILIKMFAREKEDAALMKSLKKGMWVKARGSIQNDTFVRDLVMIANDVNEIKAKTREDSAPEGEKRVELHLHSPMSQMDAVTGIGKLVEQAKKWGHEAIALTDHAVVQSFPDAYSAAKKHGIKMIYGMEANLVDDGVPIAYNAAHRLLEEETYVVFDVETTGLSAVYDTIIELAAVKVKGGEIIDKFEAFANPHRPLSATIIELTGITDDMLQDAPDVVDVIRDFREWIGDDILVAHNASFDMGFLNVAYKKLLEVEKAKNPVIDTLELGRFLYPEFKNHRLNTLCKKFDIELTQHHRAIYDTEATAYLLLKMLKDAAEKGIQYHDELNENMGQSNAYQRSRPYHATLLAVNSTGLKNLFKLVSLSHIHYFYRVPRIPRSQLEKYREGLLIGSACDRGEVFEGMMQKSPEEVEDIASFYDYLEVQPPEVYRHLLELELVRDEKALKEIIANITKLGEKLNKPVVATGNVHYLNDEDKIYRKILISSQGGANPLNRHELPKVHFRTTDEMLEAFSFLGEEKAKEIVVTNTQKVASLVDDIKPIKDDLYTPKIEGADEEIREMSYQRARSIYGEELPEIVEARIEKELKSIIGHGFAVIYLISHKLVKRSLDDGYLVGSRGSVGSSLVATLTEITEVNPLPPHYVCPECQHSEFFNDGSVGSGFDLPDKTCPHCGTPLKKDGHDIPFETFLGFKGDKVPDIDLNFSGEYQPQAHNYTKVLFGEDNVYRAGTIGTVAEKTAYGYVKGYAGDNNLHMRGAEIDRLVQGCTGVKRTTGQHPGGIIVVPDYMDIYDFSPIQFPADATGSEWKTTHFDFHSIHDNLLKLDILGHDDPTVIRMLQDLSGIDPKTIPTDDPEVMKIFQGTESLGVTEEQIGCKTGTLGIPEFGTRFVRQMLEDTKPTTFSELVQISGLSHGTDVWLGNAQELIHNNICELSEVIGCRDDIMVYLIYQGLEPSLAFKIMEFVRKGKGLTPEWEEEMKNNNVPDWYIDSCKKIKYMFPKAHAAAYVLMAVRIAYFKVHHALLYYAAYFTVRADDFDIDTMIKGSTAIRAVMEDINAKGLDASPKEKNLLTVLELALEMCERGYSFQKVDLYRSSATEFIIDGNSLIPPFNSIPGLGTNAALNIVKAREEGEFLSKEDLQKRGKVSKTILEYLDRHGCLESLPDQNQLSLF
observed_property: IC50 (µM)

INSERT INTO results (molecule, unit_of_measurement, data_value) VALUES
  ('COc1cc(C=NNC(=O)c2cc(-c3ccccc3)n[nH]2)ccc1O [Compound 5]', 'µM', 89),
  ('CCOc1cc(C=NNC(=O)c2cc(-c3cccc(OC)c3)n[nH]2)ccc1O [Compound 3]', 'µM', 301),
  ('COc1ccc(-c2cc(C(=O)NN=Cc3ccc(OC)c(OC)c3)[nH]n2)cc1 [Compound 18]', 'µM', 5.5);

All values here come from patent US20060258729A1.
